TARGET DESC: human 5HT1Da receptor (Homo sapiens)
Sequence (P28221 whole entry): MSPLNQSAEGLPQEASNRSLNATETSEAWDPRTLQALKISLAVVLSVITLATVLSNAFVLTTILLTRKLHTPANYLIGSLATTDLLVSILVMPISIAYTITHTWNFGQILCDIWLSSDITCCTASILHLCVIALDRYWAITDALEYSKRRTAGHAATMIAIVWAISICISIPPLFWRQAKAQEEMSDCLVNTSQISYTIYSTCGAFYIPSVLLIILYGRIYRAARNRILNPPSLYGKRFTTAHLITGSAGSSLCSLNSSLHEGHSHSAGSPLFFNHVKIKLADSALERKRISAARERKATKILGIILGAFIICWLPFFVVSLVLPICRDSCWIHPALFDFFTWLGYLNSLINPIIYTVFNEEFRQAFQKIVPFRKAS
TEST SUMMARY: Binding to cloned human 5HT1Da receptor
PROPERTY LABEL: pKi
pKi is defined as minus the log10 of a concentration measured in mol/L.

(Q) State its pKi for this molecule: NCCc1c[nH]c2ccc(OCC(=O)N3CCN(c4ccc(NC(=O)Oc5ccccc5)cc4)CC3)cc12 [Example 33]
(A) 8.55

====

TARGET DESC: human 5HT1Db receptor (Homo sapiens, UniProt P28222)
Sequence (P28222 whole entry): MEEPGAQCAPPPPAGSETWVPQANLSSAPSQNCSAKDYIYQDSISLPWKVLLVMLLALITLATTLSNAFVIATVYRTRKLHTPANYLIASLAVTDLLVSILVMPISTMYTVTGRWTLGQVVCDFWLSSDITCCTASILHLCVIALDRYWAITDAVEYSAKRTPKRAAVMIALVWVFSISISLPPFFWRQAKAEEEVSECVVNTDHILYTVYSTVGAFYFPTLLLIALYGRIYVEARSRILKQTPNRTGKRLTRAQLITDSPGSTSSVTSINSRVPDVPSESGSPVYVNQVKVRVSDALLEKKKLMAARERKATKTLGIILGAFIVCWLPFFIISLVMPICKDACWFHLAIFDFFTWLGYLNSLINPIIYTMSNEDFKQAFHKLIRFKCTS
TEST SUMMARY: Binding to cloned human 5HT1Db receptor
PROPERTY LABEL: pKi
# log scale: pKi equals minus log10 of the concentration in mol/L

(Q) Item `NCCc1c[nH]c2ccc(OCC(=O)N3CCN(c4ccc(NC(=O)Oc5ccccc5)cc4)CC3)cc12` : provide pKi
(A) 8.70
